Entries and their measured EC50 follow.
- target.entity: MK2 (Homo sapiens (Human), UniProt P49137)
- Sequence (P49137 whole entry): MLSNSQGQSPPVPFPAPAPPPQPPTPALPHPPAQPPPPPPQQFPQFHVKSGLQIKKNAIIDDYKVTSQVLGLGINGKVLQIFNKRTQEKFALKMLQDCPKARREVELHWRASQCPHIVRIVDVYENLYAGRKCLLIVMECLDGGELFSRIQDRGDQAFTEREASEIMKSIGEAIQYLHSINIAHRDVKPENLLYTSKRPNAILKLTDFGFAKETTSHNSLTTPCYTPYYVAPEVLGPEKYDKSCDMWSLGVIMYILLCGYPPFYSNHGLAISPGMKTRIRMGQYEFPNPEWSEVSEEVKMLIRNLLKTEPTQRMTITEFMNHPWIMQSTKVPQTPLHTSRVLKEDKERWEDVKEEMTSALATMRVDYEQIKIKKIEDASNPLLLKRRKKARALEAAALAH
- method.description: MK2 cellular assay (Hsp27 phosphorylation in Thp-1 cells)
- experimental.setup: differentiated Thp-1 cells, compound 1 hour, 50 ng/ml LPS 15 minutes, phosphorylation of Hsp27; read-out: MK2EC50
measurement.kind: EC50

compound="C=CC(=O)Nc1cccc(-c2cc3c(ccc4c5c([nH]c43)CCC5=O)cn2)c1 [II-e-1]" target_entity="MK2 (Homo sapiens (Human), UniProt P49137)" measurement_kind=EC50 observed_measurement="501 to 999 nM"
compound="C=CC(=O)N1c2cc(NC(=O)c3ccc4cc5n(c4c3)C3(CCC3)CNC5=O)ccc2OCC1(C)C [Compound V-58]" target_entity="MK2 (Homo sapiens (Human), UniProt P49137)" measurement_kind=EC50 observed_measurement="< 100 nM"
compound="C=CC(=O)N1CCOc2ccc(NC(=O)c3ccc4cc5n(c4c3)CCNC5=O)cc21 [Compound V-6]" target_entity="MK2 (Homo sapiens (Human), UniProt P49137)" measurement_kind=EC50 observed_measurement="> 1000 nM"
compound="C=CC(=O)Nc1cc(NC(=O)c2ccc3sc4c(c3c2)NC[C@@H](C)NC4=O)ccc1N1CCCC1 [III-3]" target_entity="MK2 (Homo sapiens (Human), UniProt P49137)" measurement_kind=EC50 observed_measurement="< 100 nM"
compound="C=CC(=O)NC1CCCC1NC(=O)c1ccc2sc3c(c2c1)NC[C@@H](C)NC3=O (stereo partly shown) [III-47]" target_entity="MK2 (Homo sapiens (Human), UniProt P49137)" measurement_kind=EC50 observed_measurement="< 100 nM"
compound="C=CC(=O)Nc1ccccc1C(=O)Nc1cc(-c2cc3c([nH]2)C2(CCCNC2)CNC3=O)ccn1 (racemic) [Compound I-4]" target_entity="MK2 (Homo sapiens (Human), UniProt P49137)" measurement_kind=EC50 observed_measurement="> 1000 nM"
compound="C=CC(=O)Nc1cc(-c2cc3c(cn2)CCc2c-3[nH]c3c2C(=O)NCC3)cnc1OC [II-4]" target_entity="MK2 (Homo sapiens (Human), UniProt P49137)" measurement_kind=EC50 observed_measurement="< 100 nM"
compound="C=CC(=O)Nc1cc(OCC)ccc1Nc1c(C)c(NC2CCCNC2)nc2ccnn12 (stereo not shown) [IV-2]" target_entity="MK2 (Homo sapiens (Human), UniProt P49137)" measurement_kind=EC50 observed_measurement="> 1000 nM"
compound="C=CC(=O)Nc1cc(-c2cc3c(ccc4c5c([nH]c43)CCC5=O)cn2)ccc1Cl [II-e-20]" target_entity="MK2 (Homo sapiens (Human), UniProt P49137)" measurement_kind=EC50 observed_measurement="101 to 500 nM"
compound="C=CC(=O)Nc1cc(-c2cc3c(cn2)CCc2c-3[nH]c3c2C(=O)NC2(CC2)C3)ccc1N1CCN(C)CC1 [II-27]" target_entity="MK2 (Homo sapiens (Human), UniProt P49137)" measurement_kind=EC50 observed_measurement="< 100 nM"
compound="C=CC(=O)Nc1cc(-c2cc3c(cn2)CCc2c-3[nH]c3c2C(=O)NCC3)ccc1OC [II-2]" target_entity="MK2 (Homo sapiens (Human), UniProt P49137)" measurement_kind=EC50 observed_measurement="< 100 nM"
compound="C=CC(=O)Nc1ncccc1NC(=O)c1ccc2cc3n(c2c1)C1(CCC1)CNC3=O [Compound V-57]" target_entity="MK2 (Homo sapiens (Human), UniProt P49137)" measurement_kind=EC50 observed_measurement="101 to 500 nM"
compound="C=CC(=O)Nc1cc(NC(=O)c2ccc3sc4c(c3c2)NC[C@@H](C)NC4=O)ccc1N1CCN(C)CC1 [III-4]" target_entity="MK2 (Homo sapiens (Human), UniProt P49137)" measurement_kind=EC50 observed_measurement="< 100 nM"
compound="C=CC(=O)Nc1cc(NC(=O)c2ccc3sc4c(c3c2)NC[C@@H](C)NC4=O)ccc1N1CCNCC1 [III-5]" target_entity="MK2 (Homo sapiens (Human), UniProt P49137)" measurement_kind=EC50 observed_measurement="> 1000 nM"
compound="C=CC(=O)Nc1cc(-c2ccc3c(ccc4sc5c(c43)NC[C@@H](C)NC5=O)n2)ccc1F [III-13]" target_entity="MK2 (Homo sapiens (Human), UniProt P49137)" measurement_kind=EC50 observed_measurement="< 100 nM"
compound="C=CC(=O)N1CC(C)(C)Oc2ccc(NC(=O)c3ccc4sc5c(c4c3)NC[C@@H](C)NC5=O)cc21 [III-32]" target_entity="MK2 (Homo sapiens (Human), UniProt P49137)" measurement_kind=EC50 observed_measurement="< 100 nM"
